Where do the numbers come from? From paper PMC10999543.

# System: intracellular MRSA; further: test concentration or dose not given here
# Format: cell-based, Staphylococcus aureus
# assay-conditions: compound screen, MRSA-infected HeLa cells, replicate 2
Please note: z-scoreMRSA+ rep 2 exactly at -0.07 is N. Only values below -0.07 get Y.

## Task Consider COc1ccc(CNC(=O)NC2CCN(c3ccnc(Nc4ccc(F)cc4)n3)CC2)cc1 [GSK1379788A] . Does its z-scoreMRSA+ rep 2 lie strictly below -0.07?
## Result N

## Task Okay, and Oc1ccc2ncnc(Nc3ccc(OCc4ccccc4)cc3)c2c1 [GI262866A] ?
## Result Y

## Task Cool, now CN(c1ccc2c(c1)nc(NCc1ccccc1)n2C)c1ccnc(Nc2ccc(CS(C)(=O)=O)cc2)n1 [GW811603A]
## Result N

## Task Could you do the same for CC(C)c1ccc2c(c1)NC(=O)C2=NNc1ccc(S(N)(=O)=O)cc1 [GW300653X] , please?
## Result N

## Task Thanks! And Fc1cc(Cl)ccc1Nc1ccnc2cc(I)ccc12 [GW551191X] ?
## Result N

## Task Next compound up: CN1CCN(Cc2ccc(NC(=O)Nc3ccc(N(C)c4ccnc(Nc5ccc(CS(C)(=O)=O)cc5)n4)cc3)cc2)CC1 [GW827654A]
## Result N

====

# Tested on: HeLa cells
# experimental-protocol: Compound screen by flow cytometry: HeLa cell count as surrogate readout of cell viability (z-scoreHeLa); further: test concentration or dose not given here
# Type: cell-based, human
# assay-conditions: PKIS compound screen, HeLa cell count, mean of 3 replicates
Field: label. Allowed values: t (z-scoreHeLa mean < 0.8) or f (z-scoreHeLa mean >= 0.8).

Solved entries (count: 4):
molecule	assayed-system	label-class
COc1ccc(Nc2nccc(N3CCC(NC(=O)Nc4cccc(C(C)=O)c4)C3)n2)cc1 (centres unmarked) [GSK1379731A]	HeLa cells	t
c1ccc(Oc2ccc(Nc3ccnc4cc(-c5ccc(CN6CCNCC6)o5)ccc34)cc2)nc1 [GW567142A]	HeLa cells	f
CS(=O)(=O)Nc1ccc(-c2cc(-c3ccccc3)cc(C(N)=O)c2N)cc1 [GSK586581A]	HeLa cells	t
O=c1cc(N2CCOCC2)nc2n(Cc3cccc(Cl)c3Cl)c(C3CC3)nn12 [GSK2358994A]	HeLa cells	f

## Task z-scoreHeLa mean under 0.8? Item: Cc1ccccc1CC(=O)N1CCc2cc(-c3cn(C)c4ncnc(N)c34)ccc21 [GSK2603346A]
## Result t

## Task Please answer likewise for CC(C)c1nc(-c2cccc(NS(=O)(=O)c3c(F)cccc3F)c2F)c(-c2ccnc(Nc3ccc(N4CCOCC4)nc3)n2)s1 [GSK2008607A]
## Result t

## Task For Cc1cccc(Cn2ccn3c(=O)cc(N4CCOCC4)nc23)c1 [GSK2297542A] then?
## Result f

====

# Test system: HeLa cells
# experimental-protocol: Compound screen by flow cytometry: HeLa cell count as surrogate readout of cell viability (z-scoreHeLa); further: test concentration or dose not given here
# Format: cell-based, human
# assay-conditions: PKIS compounds raw data; replicate 2; HeLa cell count
Consider the following molecules; for each one, report its cell count rep 2.
One number for each entry.

molecule	cell count rep 2
Fc1cc(Cl)ccc1Nc1ccnc2cc(-c3ccc(CN4CCOCC4)o3)ccc12 [GW560109X]	6056
Cc1nnc(-c2ccc(C)c(-c3ccc(C(=O)NCc4ccc(Cl)cc4)cc3)c2)o1 [GW708893X]	5899

Hey, can you go through the list below and give me cell count rep 2 for every item?
1. COc1cccc(C2=C(Nc3ccc(Cl)c(C(=O)O)c3)C(=O)NC2=O)c1
2. CNC(=O)c1cc(-c2ccc(F)cc2)cc(-c2ccc(S(=O)(=O)N3CCCC3)cc2)c1N [GSK635416A]
3. CCCNC(=O)Nc1ccc(N(C)c2ccnc(NC3CC3)n2)cc1 [GW818933X]
4. Cc1nn2c(=O)cc(N3CCOCC3)nc2n1Cc1cccc(Cl)c1Cl [GSK2342769A]

## Result
1. 8825
2. 4269
3. 6954
4. 3614

Please look at the items below and tell me cell count rep 2 for each one, in order.
1. O=C(Nc1n[nH]c2nc(-c3ccccc3)c(Br)cc12)C1CC1
2. Cc1n[nH]c2ccc(-c3cc(OC[C@@H](N)Cc4ccccc4)cnc3-c3ccoc3)cc12 [GSK507358A]
3. Oc1ccc2ncnc(Nc3ccc(OCc4ccccc4)cc3)c2c1 [GI262866A]

## Result
[6708, 8336, 4904]
